pKi: −log10 of the molar value.
Published pKi for 5-hydroxytryptamine receptor 2A (Homo sapiens, UniProt P28223), assembled from different documents, is shown next.
Kind request: treat 6 as inclusive, so pKi at 6 or higher is Condition met, anything lower is Condition not met.

>  <molecule>
CSc1cc2c(cc1Br)CCN2C(=O)Nc1cccnc1

>  <studySystem>
5-hydroxytryptamine receptor 2A (Homo sapiens, UniProt P28223)

>  <className>
Condition not met

$$$$
>  <molecule>
Cc1cc2c(cc1Cl)N(C(=O)Nc1ccc(Oc3cnccc3C)nc1)CC2

>  <studySystem>
5-hydroxytryptamine receptor 2A (Homo sapiens, UniProt P28223)

>  <className>
Condition met

$$$$
>  <molecule>
O=S1(=O)c2cccc3cccc(c23)N1CCCCCCN1CCN(c2ccccc2Cl)CC1

>  <studySystem>
5-hydroxytryptamine receptor 2A (Homo sapiens, UniProt P28223)

>  <className>
Condition met

$$$$
>  <molecule>
Cc1cccc(N2CCN(CCCCNC(=O)c3cc4ccccc4cn3)CC2)n1

>  <studySystem>
5-hydroxytryptamine receptor 2A (Homo sapiens, UniProt P28223)

>  <className>
Condition met

$$$$
>  <molecule>
COc1ccccc1N1CCN(CCNC(=O)c2cnn3ccccc23)CC1

>  <studySystem>
5-hydroxytryptamine receptor 2A (Homo sapiens, UniProt P28223)

>  <className>
Condition met

$$$$
>  <molecule>
Fc1ccc2c(c1)CC(CC1CN=CN1)C2 (stereo unspecified)

>  <studySystem>
5-hydroxytryptamine receptor 2A (Homo sapiens, UniProt P28223)

>  <className>
Condition not met

$$$$
